- Target Of Assay: UniProt:Q14191
- Sequence (Q14191 517-1238): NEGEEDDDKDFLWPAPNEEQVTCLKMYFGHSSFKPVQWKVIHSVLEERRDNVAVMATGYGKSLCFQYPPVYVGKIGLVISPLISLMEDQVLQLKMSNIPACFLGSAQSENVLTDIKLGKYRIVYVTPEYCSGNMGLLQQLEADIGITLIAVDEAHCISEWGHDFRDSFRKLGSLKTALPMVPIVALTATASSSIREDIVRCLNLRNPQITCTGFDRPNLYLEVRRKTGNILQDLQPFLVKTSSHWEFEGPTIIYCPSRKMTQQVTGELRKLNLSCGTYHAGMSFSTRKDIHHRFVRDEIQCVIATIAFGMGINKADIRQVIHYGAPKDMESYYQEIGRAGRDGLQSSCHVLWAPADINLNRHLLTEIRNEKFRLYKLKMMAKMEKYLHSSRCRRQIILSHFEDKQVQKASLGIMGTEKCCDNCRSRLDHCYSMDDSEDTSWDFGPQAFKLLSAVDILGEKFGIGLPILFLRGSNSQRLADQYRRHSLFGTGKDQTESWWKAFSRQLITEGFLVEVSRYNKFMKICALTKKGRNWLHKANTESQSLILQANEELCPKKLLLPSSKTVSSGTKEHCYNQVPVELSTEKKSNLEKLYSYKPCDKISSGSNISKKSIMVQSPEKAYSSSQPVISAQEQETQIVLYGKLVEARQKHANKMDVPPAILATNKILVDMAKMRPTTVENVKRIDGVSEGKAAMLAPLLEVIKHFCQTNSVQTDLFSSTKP
- Method Summary: In vitro enzymatic activity assay on WRN helicase (DNA dependent ATPase assay, ADP-Glo)
- Format: biochemical
- Details: geometric means of at least 2 determinations; read-out: WRN ATPase Activity (IC50)
Value Kind: IC50 (µM)

In [3]: df
Out[3]:
                                   compound  target_of_assay  endpoint_unit  result
0  CCc1c(N2CCN(C(=O)c3ncccc3O)CC2)c(=O)n2nc(C3=CCOCC3)nc2n1CC(=O)Nc1ccc(C(F)(F)F)cc1 [Example 72]   UniProt:Q14191             µM    0.05

[A] CCc1c(N2CCN(C(=O)c3ncccc3O)CC2)c(=O)n2nc(C3=CCCCO3)nc2n1CC(=O)Nc1ccc(C(F)(F)F)cc1Cl [Example 32]
[B] CCc1c(N2CCN(C(=O)c3ncccc3O)CC2)c(=O)n2nc(C3=CCNCC3)nc2n1CC(=O)Nc1ccc(C(F)(F)F)cc1C [Example 112]
Exam item: Could you kindly indicate whether A or B has the higher IC50 value? Answer by stating the label of the chosen item.
Marked response: B

// provenance: patent US11878973B2
